System: TK-10 renal
Experiment: NCI-60 one-dose screen, 48 h
Conditions: 10 µM unless noted
Method: Growth inhibition of the TK-10 human tumor cell line is measured as a screen for anti-cancer activity. Cells are grown in 96 well plates and exposed to the test compound for 48 hours. Compounds are tested at a single concentration, which is 10^-5 M for most compounds. The reported endpoint is percent growth (GI% or GIPRCNT), where numbers from 0 - 100% represent growth inhibition, and numbers from -100% - 0 represent cell death. For example, a value of 40 represents 60% growth inhibition. […]
About 83,000 compounds went through this panel and 20% of them were active in at least one assay; those are over-represented in the sample as a whole. Activity calls are given as the source filed them. The calls were made as follows: active = growth percent below 10; inactive = the rest.
Choose the fitting class; nothing outside active, inactive is accepted.

Examples from the recorded data:
• O=[N+]([O-])c1ccc(Sc2nc(Cl)nc(NC3CCCC3)n2)cc1 = active
• O=C(NO)c1ccc(CNc2cccc3nc(C4CC4)n(-c4ccccc4)c(=O)c23)cc1 = inactive
• Cc1nn(-c2ccccc2)c2nc3c(nc12)C1=NCCN1C(c1ccc(Cl)cc1)N3 (centres undefined) = inactive

Would you kindly look at the next entry?
Task: Fill in: this test's call for COc1cc(C2CC(c3ccc(Cl)cc3)=NN2C(C)=O)ccc1Oc1ccnc2cc(Cl)ccc12 (centres undefined) is ___
Result: inactive
